# tested_target: recombinant human NaV1.8 stably transfected HEK cells (Homo sapiens, UniProt Q9Y5Y9)
# Construct: expressed in transfected cells; host or cells: HEK cells, stably transfected
# Sequence (Q9Y5Y9 whole entry): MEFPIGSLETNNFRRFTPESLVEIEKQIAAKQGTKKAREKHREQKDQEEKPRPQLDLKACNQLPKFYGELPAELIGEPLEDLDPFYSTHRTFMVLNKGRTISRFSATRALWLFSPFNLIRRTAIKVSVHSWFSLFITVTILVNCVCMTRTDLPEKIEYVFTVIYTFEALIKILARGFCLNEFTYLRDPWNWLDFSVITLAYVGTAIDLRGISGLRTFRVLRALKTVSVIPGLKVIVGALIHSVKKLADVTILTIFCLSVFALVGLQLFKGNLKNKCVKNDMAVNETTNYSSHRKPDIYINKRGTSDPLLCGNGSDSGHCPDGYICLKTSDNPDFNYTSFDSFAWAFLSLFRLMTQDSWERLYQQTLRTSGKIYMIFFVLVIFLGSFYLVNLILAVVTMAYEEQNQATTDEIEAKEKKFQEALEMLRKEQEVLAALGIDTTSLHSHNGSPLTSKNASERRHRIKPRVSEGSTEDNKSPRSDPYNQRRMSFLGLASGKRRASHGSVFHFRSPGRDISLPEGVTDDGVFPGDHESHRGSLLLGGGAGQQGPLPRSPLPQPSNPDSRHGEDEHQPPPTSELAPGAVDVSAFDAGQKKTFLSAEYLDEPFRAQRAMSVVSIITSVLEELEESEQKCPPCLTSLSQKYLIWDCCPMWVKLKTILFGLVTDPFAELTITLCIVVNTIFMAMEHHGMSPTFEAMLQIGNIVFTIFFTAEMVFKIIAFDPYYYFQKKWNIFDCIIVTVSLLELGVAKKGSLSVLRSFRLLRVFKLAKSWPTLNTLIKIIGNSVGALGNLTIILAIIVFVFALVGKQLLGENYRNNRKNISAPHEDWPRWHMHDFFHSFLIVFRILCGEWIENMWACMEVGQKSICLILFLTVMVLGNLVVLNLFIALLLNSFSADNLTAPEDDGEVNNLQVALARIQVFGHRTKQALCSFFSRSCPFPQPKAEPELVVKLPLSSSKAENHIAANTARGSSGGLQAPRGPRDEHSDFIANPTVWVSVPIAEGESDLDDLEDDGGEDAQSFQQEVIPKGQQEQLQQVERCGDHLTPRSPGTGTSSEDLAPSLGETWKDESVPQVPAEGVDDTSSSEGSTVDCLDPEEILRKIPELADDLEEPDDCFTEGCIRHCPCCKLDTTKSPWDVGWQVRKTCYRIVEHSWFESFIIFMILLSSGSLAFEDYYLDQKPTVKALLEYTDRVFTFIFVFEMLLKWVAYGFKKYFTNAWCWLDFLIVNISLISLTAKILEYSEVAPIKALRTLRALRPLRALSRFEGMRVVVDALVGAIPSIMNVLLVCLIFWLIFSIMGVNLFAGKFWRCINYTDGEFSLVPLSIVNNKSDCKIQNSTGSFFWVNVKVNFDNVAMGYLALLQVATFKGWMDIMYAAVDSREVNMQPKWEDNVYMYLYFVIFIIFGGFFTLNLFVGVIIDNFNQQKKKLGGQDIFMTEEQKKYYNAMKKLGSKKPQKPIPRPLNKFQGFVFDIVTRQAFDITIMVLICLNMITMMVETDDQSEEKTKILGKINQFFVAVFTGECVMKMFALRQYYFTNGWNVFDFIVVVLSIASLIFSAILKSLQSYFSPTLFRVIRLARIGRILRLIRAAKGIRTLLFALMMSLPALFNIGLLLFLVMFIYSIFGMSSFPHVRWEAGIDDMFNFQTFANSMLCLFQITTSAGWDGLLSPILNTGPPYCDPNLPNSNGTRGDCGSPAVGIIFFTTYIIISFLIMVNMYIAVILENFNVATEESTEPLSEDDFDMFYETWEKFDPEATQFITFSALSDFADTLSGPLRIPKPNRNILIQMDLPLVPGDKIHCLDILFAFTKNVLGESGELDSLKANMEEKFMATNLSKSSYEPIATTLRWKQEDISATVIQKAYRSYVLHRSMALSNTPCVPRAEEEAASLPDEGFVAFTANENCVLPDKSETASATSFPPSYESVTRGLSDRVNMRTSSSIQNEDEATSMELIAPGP
# method_notes: Compound profiling on NaV1.8, human NaV1.8 cell line, SyncroPatch384PE automated patch clamp assay (Example 115, third set of compounds, Table 27)
# Type: cell-based
# experimental_parameters: resting state block (P1 measurement), human NaV1.8 HEK cells, Table 27 (third set of compounds), read-out: P1 IC50
readout_label: IC50

Record request: IC50 value, item COc1c(Oc2ncc(C(F)(F)F)nc2C(=O)Nc2cccc(S(C)(=N)=O)c2)ccc(F)c1F (centres unmarked)
≤ 200 nM

// each compound listed below needs its IC50
1. CSc1cccc(NC(=O)c2cc(C(F)(F)F)nnc2Oc2ccc(C#N)cc2C)c1
2. COc1cc(NC(=O)c2cc(C(F)(F)F)nnc2Oc2ccc(F)cc2C)c(C)cn1
3. Cc1cc(OC(F)(F)F)ccc1Oc1nnc(C(F)(F)F)cc1C(=O)Nc1cccc(S(N)(=O)=O)c1
4. COc1cc(NC(=O)c2cc(C(F)(F)F)nnc2Oc2ccc(F)cc2C)ccn1
5. COc1cc(F)ccc1Oc1nnc(C(F)(F)F)cc1C(=O)Nc1cncc(S(C)(=O)=O)c1
6. Cc1cc(F)ccc1Oc1nnc(C(F)(F)F)cc1C(=O)Nc1ccc(S(C)(=N)=O)cc1 (centres unmarked)
7. COc1cc(C#N)ccc1Oc1nnc(C(F)(F)F)cc1C(=O)Nc1cc(S(C)(=O)=O)ccc1F
8. CS(=N)(=O)c1cccc(NC(=O)c2cc(C(F)(F)F)nnc2Oc2ccc(F)cc2Cl)c1 (centres unmarked)

1: > 5000 nM; 2: > 5000 nM; 3: ≤ 200 nM; 4: 501 to 1000 nM; 5: 1000 to 5000 nM; 6: > 5000 nM; 7: 201 to 500 nM; 8: 201 to 500 nM

# return IC50 for each item in the list
1. CS(=O)(=O)c1cccc(NC(=O)c2cc(C(F)(F)F)nnc2Oc2ccc(OC(F)F)cc2)c1
2. CNC(=O)c1cccc(NC(=O)c2cc(C(F)(F)F)nnc2Oc2ccc(F)cc2OC)c1

["≤ 200 nM", "201 to 500 nM"]

====

# tested_target: recombinant human NaV1.8 stably transfected HEK cells (Homo sapiens)
# Construct: expressed in transfected cells; host or cells: HEK cells, stably transfected
# method_notes: Compound profiling on NaV1.8, human NaV1.8 cell line, SyncroPatch384PE automated patch clamp assay (Example 102, first set of compounds, Table 16)
# Type: cell-based
# experimental_parameters: inactivated state block (P2 measurement), human NaV1.8 HEK cells, Table 16 (first set of compounds), read-out: P2IC50
readout_label: IC50

Would you kindly share the measured IC50 for CS(=N)(=O)c1cccc(NC(=O)c2cc(C(F)(F)F)cnc2Oc2cccnc2OC(F)(F)F)c1 (single isomer, unassigned) [Compound 1642] ?
≤ 20 nM

Would you mind telling me what IC50 value was observed for Cc1nc(OC2CCC2)ccc1Oc1nnc(C(F)(F)F)c(C)c1C(=O)Nc1cccc(S(C)(=N)=O)c1 (stereo not drawn) [Compound 1498] ?
40 to 200 nM

Which IC50 is listed for "CS(=O)(=O)c1cccc(NC(=O)c2cc(C(F)(F)F)cnc2Oc2cccn3ccnc23)c1" ?
200 to 500 nM

Respectfully, I request IC50 for each entry included below.
1. Cc1cc(F)ccc1Oc1ncc(Br)c(C)c1C(=O)Nc1cccc([S@](C)(=N)=O)c1
2. CS(=N)(=O)c1cccc(NC(=O)c2cc(C(F)(F)F)cnc2Oc2cnc(C(F)(F)F)nc2)c1 (stereo not drawn)

["≤ 20 nM", "200 to 500 nM"]

# per-item lookup of IC50; items listed below
1. COc1cc(C#N)ccc1Oc1nnc(C(F)(F)F)c(C)c1C(=O)Nc1cccc(C(=O)NCC2(F)CC2)c1
2. COc1cc(C#N)ccc1Oc1nnc(C2=CCOC2)c(C)c1C(=O)Nc1cccc(S(C)(=N)=O)c1 (stereo not drawn)
3. CCc1c(C(F)(F)F)nnc(Oc2ccc(F)cc2OC)c1C(=O)Nc1cccc([S@@](C)(=N)=O)c1
4. COc1cc(C#N)ccc1Oc1nc(C(F)(F)F)cc(C)c1C(=O)Nc1cccc([S@](C)(=N)=O)c1
5. Cc1nc(Br)ccc1Oc1ncc(C(F)(F)F)cc1C(=O)Nc1cccc(S(C)(=N)=O)c1 (stereo not drawn)
6. CCOC(=O)c1cc(NC(=O)c2c(Oc3ccc(F)cc3C)nnc(C(F)(F)F)c2C)cc(S(C)(=O)=O)c1

1: 200 to 500 nM; 2: 40 to 200 nM; 3: ≤ 20 nM; 4: ≤ 20 nM; 5: ≤ 20 nM; 6: 200 to 500 nM

Go through the list and state IC50 for each entry.
1. CC(C)Oc1ccc(Oc2ncc(C(F)(F)F)cc2C(=O)Nc2cccc(S(C)(=N)=O)c2)c(F)c1 (stereo not drawn)
2. Cc1nc(F)ccc1Oc1ncc(C(F)(F)F)c(C)c1C(=O)Nc1cccc([S@@](C)(=N)=O)c1
3. CC(C#N)Oc1cc(F)c(Oc2ncc(C(F)(F)F)cc2C(=O)Nc2cccc(C(N)=O)c2)cc1F (stereo not drawn)
4. COc1cc(C#N)ccc1Oc1nnc(-c2ccccc2F)c(C)c1C(=O)Nc1cccc(S(C)(=N)=O)c1 (stereo not drawn)

["200 to 500 nM", "≤ 20 nM", "200 to 500 nM", "40 to 200 nM"]

====

I'd appreciate it if you could supply pIC50 values for the items below.
# tested_target: recombinant human NaV1.8 stably transfected HEK cells (Homo sapiens)
# Construct: expressed in transfected cells; host or cells: HEK cells, stably transfected
# method_notes: Compound profiling on NaV1.8, human NaV1.8 cell line, SyncroPatch384PE automated patch clamp assay (Example 102, first set of compounds, Table 16)
# Assay type: cell-based
# experimental_parameters: resting state block (P1 measurement), human NaV1.8 HEK cells, Table 16 (first set of compounds), read-out: P1IC50
pIC50: −log10 of the molar value.

Return reported pIC50; argument: "COc1cc(C#N)ccc1Oc1nnc(C(F)(F)F)c(C)c1C(=O)Nc1cncc(C#N)c1"
6.70 to 7.40

So what does the record say about pIC50 for COc1c(Oc2nc(C(F)(F)F)ccc2C(=O)Nc2cccc(S(C)(=N)=O)c2)ccc(F)c1F (stereo not drawn) ?
≥ 7.70

What value of pIC50 has been recorded for this entry: "Cc1ccc(Oc2nnc(C(F)(F)F)c(C)c2C(=O)Nc2cccc(S(C)(=O)=O)c2)c(C)n1"
6.30 to 6.70

Data request, read-out pIC50, for "COc1ccc(-c2nnc(Oc3ccc(C#N)cc3OC)c(C(=O)Nc3cccc([S@](C)(=N)=O)c3)c2C)cn1"
6.30 to 6.70

Quick one: pIC50 for "COc1cc(C#N)ccc1Oc1nnc(-c2ccc(C)cc2)c(C)c1C(=O)Nc1cccc([S@](C)(=N)=O)c1" ?
≥ 7.70

Requested field: pIC50. Item: "COc1c(Oc2ncc(Br)cc2C(=O)Nc2ccc(C(N)=O)cc2)ccc(F)c1F"
≥ 7.70

Can you share its pIC50? I mean this compound: CS(=N)(=O)c1cccc(NC(=O)c2cc(C(F)(F)F)cnc2Oc2ccc(C(F)(F)F)cc2)c1 (stereo not drawn)
7.40 to 7.70

Item COc1cc(C#N)ccc1Oc1nnc(-c2cncs2)c(C)c1C(=O)Nc1cccc(S(C)(=N)=O)c1 (stereo not drawn) has what recorded pIC50?
6.30 to 6.70

# per-item lookup of pIC50; items listed below
1. CC(C)Oc1ccc(Oc2ncc(C(F)(F)F)cc2C(=O)Nc2ccc(C(N)=O)cc2)c(F)c1F
2. Cc1cc(F)ccc1Oc1nnc(C(F)(F)F)c(C)c1C(=O)Nc1ccc(C(N)=O)cc1
3. Cc1c(C(F)(F)F)nnc(Oc2ccc(OC(F)F)c(F)c2F)c1C(=O)Nc1cccc(S(C)(=N)=O)c1 (single isomer, unassigned) [Compound 1512]
4. COc1nc(C2CC2)ccc1Oc1nnc(C(F)(F)F)c(C)c1C(=O)Nc1cccc(S(C)(=N)=O)c1 (stereo not drawn)
5. CS(=O)(=O)c1cccc(NC(=O)c2cc(C(F)(F)F)cnc2OC2CCC(=O)NC2)c1 (stereo not drawn)
6. CC(C)(O)c1ccc(Oc2ncc(C(F)(F)F)cc2C(=O)Nc2cccc(S(C)(=O)=O)c2)c(F)c1
7. COc1cc(C#N)ccc1Oc1nnc(C(F)(F)F)c(C)c1C(=O)Nc1cnc(C(N)=O)s1

["7.40 to 7.70", "6.70 to 7.40", "≥ 7.70", "≥ 7.70", "6.30 to 6.70", "6.30 to 6.70", "6.70 to 7.40"]

====

Would you mind telling me the reported IC50 of each entry?
# tested_target: recombinant human NaV1.8 stably transfected HEK cells (Homo sapiens)
# Construct: expressed in transfected cells; host or cells: HEK cells, stably transfected
# method_notes: Compound profiling on NaV1.8, human NaV1.8 cell line, SyncroPatch384PE automated patch clamp assay (Example 102, first set of compounds, Table 16)
# Format: cell-based
# experimental_parameters: resting state block (P1 measurement), human NaV1.8 HEK cells, Table 16 (first set of compounds), read-out: P1IC50

Example cases with answers are listed next.
Quick one: IC50 of Cc1nc(OC2CCC2)ccc1Oc1ncc(C(F)(F)F)cc1C(=O)Nc1cccc(C(N)=O)c1 [Compound 1565] ?
200 to 500 nM

Requested read-out: IC50. Entry: COc1c(Oc2nccc(C(F)(F)F)c2C(=O)Nc2cccc(C(N)=O)c2)ccc(F)c1F [Compound 1652]
20 to 40 nM

Form field: reported IC50 of COc1cc(Cl)ccc1Oc1nnc(C(F)(F)F)c(C)c1C(=O)Nc1cccc(S(C)(=N)=O)c1 (single isomer, unassigned) [Compound 1482]
≤ 20 nM

Reported IC50 for Cc1c(C(F)(F)F)nnc(Oc2c(F)cc(OC(F)(F)F)cc2F)c1C(=O)Nc1cccc(S(C)(=O)=O)c1 [Compound 1423] : what is it?
200 to 500 nM

Find the recorded IC50 belonging to Cn1ccc2c(Oc3ncc(C(F)(F)F)cc3C(=O)Nc3cccc(S(C)(=O)=O)c3)cccc21 [Compound 1624] and report it.
200 to 500 nM

Sample Cc1nc(Br)ccc1Oc1ncc(C(F)(F)F)cc1C(=O)Nc1cccc(S(C)(=N)=O)c1 (stereo not shown) [Compound 1684] — what was its IC50?
≤ 20 nM

# ---- query compound ----
Data request, read-out IC50, for Cc1nc(Br)ccc1Oc1nnc(C(F)(F)F)c(C)c1C(=O)Nc1cccc(S(C)(=O)=O)c1 [Compound 1469]
≤ 20 nM
